- System: Influenza A/Panama/2007/99
- Format: cell-based
Entries whose Max reduction in titer (Log10) is below 3 Log10 take condition met; entries at or above 3 Log10 take condition not met.

| MOLECULE | ASSIGNED_LABEL |
| --- | --- |
| CC(C)C[C@H](NC(=O)c1cc2ccccc2s1)C(=O)N1CCN(C(=O)[C@H](CO)NS(=O)(=O)c2ccc(Cl)cc2Cl)CC1 [GSK1016790A] | condition not met |

Task: Please check: Max reduction in titer (Log10) for CCCCCCCCCC(=O)O[C@@H]1[C@@H](C)[C@@]2(O)[C@@H](C=C(CO)C[C@@]3(O)C(=O)C(C)=C[C@@H]23)[C@@H]2C(C)(C)[C@]12OC(=O)CCCCCCCCC [4αPDD, 4α-Phorbol 12,13-didecanoate] , strictly under 3 Log10 or not?
Output: condition met

Task: Field: below-cutoff. Rule: recorded Max reduction in titer (Log10) strictly less than 3 Log10. Subject: `COc1cc(CNC(=O)CCCC/C=C/C(C)C)ccc1O`
Output: condition met

Task: Lab log: compare recorded Max reduction in titer (Log10) with 3 Log10; is it strictly lower for `O=[N+]([O-])c1cc(Cl)ccc1S(=O)(=O)N1CCN(Cc2ccccc2)CC1` ?
Output: condition met

Task: Criterion: Max reduction in titer (Log10) strictly below 3 Log10. Is it met by `C=C(C)[C@]12C[C@@H](C)[C@@]34O[C@](Cc5ccccc5)(O[C@@H]1[C@@H]3C=C(COC(=O)Cc1ccc(O)c(OC)c1)C[C@]1(O)C(=O)C(C)=C[C@@H]41)O2` ?
Output: condition not met
